# target_under_test: murine IL-21R expressed on cells (murine, UniProt Q9JHX3 20-529)
# Sequence (Q9JHX3 20-529 limits assumed): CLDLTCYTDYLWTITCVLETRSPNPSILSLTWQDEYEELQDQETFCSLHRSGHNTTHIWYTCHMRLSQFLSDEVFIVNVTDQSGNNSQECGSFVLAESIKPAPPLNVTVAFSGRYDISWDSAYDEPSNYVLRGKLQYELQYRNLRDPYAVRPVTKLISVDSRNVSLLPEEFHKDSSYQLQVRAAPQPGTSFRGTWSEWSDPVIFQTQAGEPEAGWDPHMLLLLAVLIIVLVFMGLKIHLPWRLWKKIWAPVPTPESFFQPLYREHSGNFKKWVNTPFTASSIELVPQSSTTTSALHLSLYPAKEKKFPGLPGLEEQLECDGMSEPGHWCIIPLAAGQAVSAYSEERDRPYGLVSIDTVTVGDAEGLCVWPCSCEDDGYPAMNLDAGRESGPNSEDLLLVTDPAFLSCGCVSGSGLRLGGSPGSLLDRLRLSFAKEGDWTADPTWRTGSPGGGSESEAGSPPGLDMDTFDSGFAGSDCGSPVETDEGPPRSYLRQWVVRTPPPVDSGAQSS
# experimental_protocol: cell-based or functional assay
Kindly apply the following: criterion met if Neutralization of T cell Proliferation IC50 (nM), murine primary CD8+ T cells is less than 0.6 nM, criterion not met in every other case.

1) AbR (antibody, human IgG1, V domains shown, Purified form: human IgG1 double-mutant (L234A, G237A); Framework limits derived; also called VH3/VL18; VH3DM/VL18) VH: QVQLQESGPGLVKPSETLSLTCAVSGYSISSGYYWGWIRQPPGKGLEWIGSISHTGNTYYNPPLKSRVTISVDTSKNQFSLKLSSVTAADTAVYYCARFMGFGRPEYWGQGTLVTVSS VL: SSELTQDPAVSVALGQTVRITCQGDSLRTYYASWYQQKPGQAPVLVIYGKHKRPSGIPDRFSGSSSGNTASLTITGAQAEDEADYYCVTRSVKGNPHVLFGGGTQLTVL	criterion met
2) AbS (antibody, human IgG1, V domains shown, Human IgG1 triple-mutant (L234A, L235A, G237A); Framework limits derived; also called VHP/VL6; VHPTM/VL6) VH: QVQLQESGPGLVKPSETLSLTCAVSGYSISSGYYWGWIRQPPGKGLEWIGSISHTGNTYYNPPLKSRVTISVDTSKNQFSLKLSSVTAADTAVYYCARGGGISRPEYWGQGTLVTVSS VL: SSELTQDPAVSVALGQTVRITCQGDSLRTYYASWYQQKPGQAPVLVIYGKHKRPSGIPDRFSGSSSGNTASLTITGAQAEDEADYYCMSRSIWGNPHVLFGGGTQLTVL	criterion met
3) AbO (antibody, human IgG1, V domains shown, Human IgG1 triple-mutant (L234A, L235A, G237A); Framework limits derived; also called VHP/VL16; VHPTM/VL16) VH: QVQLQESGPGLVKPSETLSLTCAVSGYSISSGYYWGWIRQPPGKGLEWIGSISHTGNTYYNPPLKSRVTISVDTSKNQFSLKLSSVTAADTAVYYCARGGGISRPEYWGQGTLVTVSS VL: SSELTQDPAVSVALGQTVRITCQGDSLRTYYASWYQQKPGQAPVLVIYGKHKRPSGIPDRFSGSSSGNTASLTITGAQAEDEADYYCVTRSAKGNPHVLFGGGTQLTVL	criterion not met
4) parental 18A5 antibody (antibody, V domains shown) VH: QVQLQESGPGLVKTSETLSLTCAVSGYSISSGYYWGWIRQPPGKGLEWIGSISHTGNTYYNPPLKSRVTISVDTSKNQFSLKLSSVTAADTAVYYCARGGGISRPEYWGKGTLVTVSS VL: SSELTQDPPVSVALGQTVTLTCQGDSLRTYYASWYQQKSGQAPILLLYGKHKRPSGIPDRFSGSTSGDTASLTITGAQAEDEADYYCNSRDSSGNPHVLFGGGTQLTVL	criterion not met
5) AbQ (antibody, human IgG1, V domains shown, Purified form: human IgG1 double-mutant (L234A, G237A); Framework limits derived; also called VH3/VL2; VH3DM/VL2) VH: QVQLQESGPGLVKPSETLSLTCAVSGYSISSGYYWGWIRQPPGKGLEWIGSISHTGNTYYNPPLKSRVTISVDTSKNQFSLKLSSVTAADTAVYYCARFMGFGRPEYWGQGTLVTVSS VL: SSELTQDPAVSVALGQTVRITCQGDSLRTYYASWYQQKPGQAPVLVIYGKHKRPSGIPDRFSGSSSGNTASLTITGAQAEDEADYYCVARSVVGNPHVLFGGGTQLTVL	criterion not met
6) AbU (antibody, human IgG1, V domains shown, Human IgG1 triple-mutant (L234A, L235A, G237A); Framework limits derived; also called VHP/VL25; VHPTM/VL25) VH: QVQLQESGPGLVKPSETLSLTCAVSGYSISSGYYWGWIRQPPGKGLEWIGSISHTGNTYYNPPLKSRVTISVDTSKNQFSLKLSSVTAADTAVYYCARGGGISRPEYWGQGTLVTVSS VL: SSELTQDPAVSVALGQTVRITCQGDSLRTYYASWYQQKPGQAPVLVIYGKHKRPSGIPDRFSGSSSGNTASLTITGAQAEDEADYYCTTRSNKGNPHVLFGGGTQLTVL	criterion not met
